B1: tRNA (parent)
chain: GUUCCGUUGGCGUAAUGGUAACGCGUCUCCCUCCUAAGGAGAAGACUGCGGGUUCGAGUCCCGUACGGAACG

variants of: B1; experiment: yeast fitness relative to wild type (ratio to wild type); higher = fitter; tRNA-Arg(CCU), competitive growth, 37 C, YPD
This sample holds only a part of the variants without activity.
Observed property: yeast fitness
Give the figure by itself; no unit, no explanation.

Below: 9 variants and their reported yeast fitness.
Sequence record: GUUUCGUUGGCGUAAUGGUAACGCGUCUCCCUCCUAAGGAGAAGACUGCGGGUUCGAGUCCCGAACGGAACG
yeast fitness: 0.852
//
Sequence record: GUUCCGUUGGCGUAAUGGUAUCGCGUUUCCCUCAUAAGGAGAAGACUGCGGGUUCGAGUCCCGUACGGAACG
yeast fitness: 0.774
//
Sequence record: GAUCCGUUGGCGUAAUGGUAACGCGUCUCCCUAUUAAGGAGAAGACUGCGGGUUCAAGUCCCGUACGGAACG
yeast fitness: 0.542
//
Sequence record: GUUCCGUUGGCGUAAUGGUAACGUGUCUCUCUCCUAAGGAGAAGACUGCGGGUUCGAGUACCGUACGGAACG
yeast fitness: 0.532
//
Sequence record: GUUCAGUUGGCGUAAUGGUAACGCGUUUCCCUCCUAAGGAGAAGACUGCGGGUUCGAGUCCCGUACGGUACG
yeast fitness: 0.711
//
Sequence record: GUUCCGUUGGCGUAAUGGUAACGCGUGUCCCUCCUAAGGAGAAGACUGCGGGUUCGAGUCCCGUUCGGAACG
yeast fitness: 0.713
//
Sequence record: GUUCCGUUGGCGUAAUGGUAACGUGUCUCCCUCCUAAGGAGAAGACUGCGGGUUCGAGUCCAGUACGGCACG
yeast fitness: 0.524
//
Sequence record: GUUCCGUUAGCGUAAUGGUAACGCGUCUGCCUCCUAAGGAGAAAACUGCGGGUUCGAGUCCCGUACGGAACG
yeast fitness: 0.614
//
Sequence record: GUUCCGUUGGCGUAAUGGUAGCGCGUCUCCCUCCUAAGGAGAAGACUGCGGGACCGAGUCGCGUACGGAACG
yeast fitness: 0.718

**Query** Specify reported yeast fitness for the variant shown: `GUUCCGUUGGAGUAAUGGUAACGCGUCUCCCUCCUAAGGAGAAGACUGCGGGUUCGAGUCCCGUACGGACCG`
**Result** 0.593
